Values from patent US11414437B2

Recorded maximum tolerance dose, one value per entry.
# System: SD rats
# assay conditions: female rats, single intragastric dose
Structures can show the parent of a compound that is named as a salt.
Report the value in mmol/kg with no unit label.

Examples with answers:
- CC(C)C[C@H](NC(=O)CNC(=O)c1cc(Br)ccc1Cl)B1OC(=O)[C@@H](c2ccccc2)O1: 0.002216
- CC(C)C[C@H](NC(=O)CNC(=O)c1cc(Cl)ccc1Cl)B1OC(=O)[C@@H](c2ccccc2)O1: 0.001108
- CC(C)C[C@H](NC(=O)CNC(=O)c1cc(Cl)ccc1Cl)B(O)O: 0.001108

Below: the item to evaluate.
Query block: Specify measured maximum tolerance dose for CC(C)C[C@H](NC(=O)CNC(=O)c1cc(Cl)ccc1Cl)B1OC(=O)C(CC(=O)O)(CC(=O)O)O1 [Ixazomib (MLN9708), Ixazomib Citrate] .
Result block: 0.001108
